Please respond with reported MIC for every item in the list.
- Tested on: Staphylococcus aureus 209P JC-1
- Assay: MIC in agar plate culture-dilution assay
- Type: cell-based
- Measurement parameters: Staphylococcus aureus 209P JC-1; agar plate culture-dilution; read-out: MIC
Give the quantity in µg/mL, number only.

Any idea what its MIC is? The compound is Cn1c(SCC2=C(C(=O)O)N3C(=O)[C@@H](NC(=O)C(NC(=O)c4cc(=O)c(O)cn4O)c4csc(N)n4)[C@H]3SC2)nnc(O)c1=O (stereo partly drawn)
3.13

Which MIC reading was recorded for the compound Nc1nc(C(NC(=O)c2cc(=O)c(O)cn2O)C(=O)N[C@@H]2C(=O)N3C(C(=O)[O-])=C(CSc4cc[n+](CC(=O)O)c5c4CCC5)CS[C@H]23)cs1 (stereo partly drawn) ?
3.13

Using the record for NC(=O)C[n+]1ccc(SCC2=C(C(=O)[O-])N3C(=O)[C@@H](NC(=O)C(NC(=O)c4cc(=O)c(O)cn4O)c4csc(N)n4)[C@H]3SC2)cc1 (stereo partly drawn) , report its MIC.
1.56

Query: MIC; subject: Nc1nc(C(NC(=O)c2cc(=O)c(O)cn2O)C(=O)N[C@@H]2C(=O)N3C(C(=O)O)=C(CSc4ccnc5c4CCC5)CS[C@H]23)cs1 (stereo partly drawn)
1.56

Given C[n+]1ccc(SCC2=C(C(=O)[O-])N3C(=O)[C@@H](NC(=O)C(NC(=O)c4cc(=O)c(O)cn4O)c4csc(N)n4)[C@H]3SC2)c2c1CCC2 (stereo partly drawn) , state its recorded MIC.
1.56

// lookup MIC for Nc1nc(C(NC(=O)c2cc(=O)c(O)cn2O)C(=O)N[C@@H]2C(=O)N3C(C(=O)O)=C(CSc4ccncc4)CS[C@H]23)cs1 (stereo partly drawn)
3.13

Returns the measured MIC for the input compound. Input: Nc1nc(C(NC(=O)c2cc(=O)c(O)cn2O)C(=O)N[C@@H]2C(=O)N3C(C(=O)[O-])=C(CSc4cc[n+](C5CC5)cc4)CS[C@H]23)cs1 (stereo partly drawn)
1.56

Name the reported MIC value associated with the compound C[n+]1ccc(SCC2=C(C(=O)[O-])N3C(=O)[C@@H](NC(=O)C(NC(=O)c4cc(=O)c(O)c[nH]4)c4csc(N)n4)[C@H]3SC2)cc1 (stereo partly drawn) [A, reference compound]
0.78

// query MIC value for entry Nc1nc(C(NC(=O)c2cc(=O)c(O)cn2O)C(=O)N[C@@H]2C(=O)N3C(C(=O)[O-])=C(CSc4cc[n+](CCO)cc4)CS[C@H]23)cs1 (stereo partly drawn)
1.56
